Molecular target: T1, monkey TIM-3 protein with hFc tag (cTIM-3-hFc protein) (monkey; human)
T1 construct: Made in HEK293 cells; also called monkey TIM-3 extracellular domain protein; not shown: human IgG Fc fragment (hFc) of the pCpC vector
T1 chain: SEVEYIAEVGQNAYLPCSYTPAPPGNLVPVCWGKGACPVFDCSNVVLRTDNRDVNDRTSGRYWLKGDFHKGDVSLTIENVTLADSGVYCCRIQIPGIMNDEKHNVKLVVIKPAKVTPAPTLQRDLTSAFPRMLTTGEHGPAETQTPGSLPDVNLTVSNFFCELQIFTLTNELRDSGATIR
Assay: ELISA, coated cTIM-3-hFc; antibody 0.6667 nM
Measured property: OD450
Form rule: numeric answer, no unit written next to it.

>  <Binder>
134H3G6 (TIM-3 antibody purified from hybridoma, chimeric antibody of Example 2) (antibody, V domains shown, From hybridoma of Harbour H2L2 transgenic mice: human variable regions, rat constant regions) VH: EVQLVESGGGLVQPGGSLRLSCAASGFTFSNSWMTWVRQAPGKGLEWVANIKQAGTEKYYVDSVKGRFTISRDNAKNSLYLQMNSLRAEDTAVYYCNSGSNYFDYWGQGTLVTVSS VL: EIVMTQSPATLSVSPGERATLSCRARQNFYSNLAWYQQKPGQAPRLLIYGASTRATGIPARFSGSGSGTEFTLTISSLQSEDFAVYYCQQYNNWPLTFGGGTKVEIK

>  <OD450>
1.22

$$$$
>  <Binder>
39E5H1 (TIM-3 antibody purified from hybridoma, chimeric antibody of Example 2) (antibody, V domains shown, From hybridoma of Harbour H2L2 transgenic mice: human variable regions, rat constant regions) VH: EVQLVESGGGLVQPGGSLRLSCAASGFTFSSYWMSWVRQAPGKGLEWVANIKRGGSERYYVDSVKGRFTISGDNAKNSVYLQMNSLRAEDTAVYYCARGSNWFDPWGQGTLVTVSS VL: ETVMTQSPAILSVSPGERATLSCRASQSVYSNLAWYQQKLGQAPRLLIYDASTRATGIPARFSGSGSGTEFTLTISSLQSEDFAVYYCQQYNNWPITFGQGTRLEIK

>  <OD450>
3.41

$$$$

Now look at this entry.
What does the record list as OD450 for 18D2H2 (TIM-3 antibody purified from hybridoma, chimeric antibody of Example 2) (antibody, V domains shown, From hybridoma of Harbour H2L2 transgenic mice: human variable regions, rat constant regions) VH: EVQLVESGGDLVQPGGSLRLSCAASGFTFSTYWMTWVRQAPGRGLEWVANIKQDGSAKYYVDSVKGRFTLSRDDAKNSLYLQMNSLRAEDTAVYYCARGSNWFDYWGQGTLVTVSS VL: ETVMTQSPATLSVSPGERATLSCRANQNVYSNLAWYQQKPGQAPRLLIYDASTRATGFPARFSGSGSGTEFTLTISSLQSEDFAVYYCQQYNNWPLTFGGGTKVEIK ?
1.89
